Target: Nitric oxide synthase, inducible (Mus musculus) (UniProt P29477)
Sequence (whole entry): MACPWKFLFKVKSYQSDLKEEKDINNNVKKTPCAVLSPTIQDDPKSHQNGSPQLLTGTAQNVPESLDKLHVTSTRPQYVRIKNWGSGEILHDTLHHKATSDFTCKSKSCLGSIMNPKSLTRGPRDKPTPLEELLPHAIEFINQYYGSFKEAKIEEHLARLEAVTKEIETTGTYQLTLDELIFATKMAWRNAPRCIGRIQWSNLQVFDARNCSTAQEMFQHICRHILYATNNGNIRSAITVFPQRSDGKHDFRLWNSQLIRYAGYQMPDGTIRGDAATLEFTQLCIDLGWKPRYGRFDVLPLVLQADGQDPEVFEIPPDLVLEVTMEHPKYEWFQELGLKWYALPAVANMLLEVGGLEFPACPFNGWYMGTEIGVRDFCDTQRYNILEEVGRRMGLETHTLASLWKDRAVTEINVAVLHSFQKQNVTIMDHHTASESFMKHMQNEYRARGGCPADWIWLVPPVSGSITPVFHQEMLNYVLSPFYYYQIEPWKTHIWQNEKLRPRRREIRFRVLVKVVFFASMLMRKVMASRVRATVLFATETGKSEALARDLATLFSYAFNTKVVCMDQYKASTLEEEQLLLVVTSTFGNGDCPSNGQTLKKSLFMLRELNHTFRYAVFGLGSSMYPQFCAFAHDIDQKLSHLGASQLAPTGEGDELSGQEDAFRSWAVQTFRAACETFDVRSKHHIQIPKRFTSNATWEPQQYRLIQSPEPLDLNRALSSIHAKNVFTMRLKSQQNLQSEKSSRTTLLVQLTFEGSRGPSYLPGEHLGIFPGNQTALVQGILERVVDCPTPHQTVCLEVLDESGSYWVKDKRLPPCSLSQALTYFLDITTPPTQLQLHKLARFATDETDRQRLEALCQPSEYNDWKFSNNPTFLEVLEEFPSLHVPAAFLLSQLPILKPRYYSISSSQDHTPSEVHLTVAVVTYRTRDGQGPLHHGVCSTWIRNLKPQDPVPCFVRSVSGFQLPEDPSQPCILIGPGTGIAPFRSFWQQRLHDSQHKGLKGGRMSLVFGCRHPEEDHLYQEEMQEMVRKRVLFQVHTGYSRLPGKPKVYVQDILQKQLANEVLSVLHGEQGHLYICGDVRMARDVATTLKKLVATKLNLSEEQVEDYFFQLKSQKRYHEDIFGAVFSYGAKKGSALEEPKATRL
Assay: Formation of Nitric Oxide by Nitric Oxide synthase II(% relative to NOHA)
Assay type: functional
METRIC NAME: Initial rates
Lab note: jot down the number only; don't add units.

{"TEST SMILES": "N/C(=N/CCCCC(=O)O)NO", "METRIC NAME": "Initial rates", "QUANTITATIVE READOUT": 1}

Next up:
QUERY: Request the reported Initial rates associated with CCCCC/N=C(/N)NO
RESULT: 25

----------
Form field: k cat/Km (one value per entry).
assay: Ratio between Km (uM) and Kcat (1/min) was determined; assay type: functional
The figure you give is taken to be in M⁻¹ s⁻¹; do not add the unit.

{"COMPOUND": "N/C(=N/CCCCC(N)C(=O)O)NO (stereo not given)", "k cat/Km, M⁻¹ s⁻¹": 46700}
{"COMPOUND": "N=C(NO)Nc1ccc(Cl)cc1", "k cat/Km, M⁻¹ s⁻¹": 3330}
{"COMPOUND": "CCCCC/N=C(/N)NO", "k cat/Km, M⁻¹ s⁻¹": 15000}
{"COMPOUND": "CCCCN/C(N)=N/O", "k cat/Km, M⁻¹ s⁻¹": 96700}

Next up:
QUERY: Request the reported k cat/Km associated with N/C(=N/CCCC(N)C(=O)O)NO (stereo not given)
RESULT: 200000
